Species on record: Sus scrofa
Experiment: Inhibition of porcine kidney tissue non-specific alkaline phosphatase assessed as residual enzyme activity at 0.4 mM in presence of 4% DMSO at pH 10.4 at 37 degC relative to untreated control
Form field: Activity (one value per entry).
reported endpoint: Activity (%)

INSERT INTO results (smiles_text, unit_spec, observed_measurement) VALUES
  ('Oc1ccccc1N1CCN(c2csc3ccccc23)CC1', '%', 109),
  ('N#Cc1csc2ccccc12', '%', 92),
  ('O=C(c1ccccc1)c1csc2ccccc12', '%', 80),
  ('O=Cc1c(-c2cccnc2)sc2ccccc12', '%', 93),
  ('COc1ccc(-c2sc3ccccc3c2Oc2ccccc2)cc1', '%', 94),
  ('COc1csc2ccccc12', '%', 93);

====

Form field: Activity (one value per entry).
Organism: Sus scrofa
Assay: Inhibition of porcine kidney tissue non-specific alkaline phosphatase assessed as residual enzyme activity at 0.4 mM in presence of 4% DMSO at pH 10.4 at 37 degC relative to untreated control
Where a name gives a salt, the structure may show the parent alone.
reported endpoint: Activity (%)

INSERT INTO measurements (molecule, observed_measurement) VALUES
  ('N#Cc1ccc(-c2sc3ccccc3c2C=O)cc1', 105),
  ('c1ccc2c(N3CCCCC3)csc2c1', 80),
  ('COc1cc(Oc2csc3ccccc23)cc(OC)c1OC', 101),
  ('c1ccc([C@H]2CN3CCSC3=N2)cc1 [LEVAMISOLE HYDROCHLORIDE]', 10),
  ('N#Cc1ccccc1-c1sc2ccccc2c1N1CCOCC1', 93),
  ('N#Cc1ccccc1-c1sc2ccccc2c1C(=O)c1ccccc1', 92),
  ('Fc1ccc(Oc2csc3ccccc23)cc1', 78),
  ('NCc1ccc(Oc2csc3ccccc23)cc1', 83),
  ('COc1ccc(Oc2c(-c3ccccc3C#N)sc3ccccc23)c(OC)c1OC', 106),
  ('Cc1ccc(-c2cc3ccccc3s2)c([N+](=O)[O-])c1', 97),
  ('COc1c(-c2ccccc2C#N)sc2ccccc12', 79),
  ('O=Cc1c(-c2ccccc2Cl)sc2ccccc12', 97),
  ('N#Cc1ccccc1-c1sc2ccccc2c1Oc1ccc(Cl)cc1', 79),
  ('COc1ccc(-c2sc3ccccc3c2CN)c(N)c1', 103),
  ('COc1ccc(Oc2c(-c3ccccc3C#N)sc3ccccc23)cc1', 98),
  ('COc1c(-c2ccccc2)sc2ccccc12', 87),
  ('COc1c(-c2cnc3ccccc3c2)sc2ccccc12', 86),
  ('O=[N+]([O-])c1ccccc1-c1cc2ccccc2s1', 86),
  ('O=Cc1c(-c2ccc(C(F)(F)F)cc2)sc2ccccc12', 80),
  ('COc1ccc(Oc2c[s+]([O-])c3ccccc23)cc1 (stereo not drawn)', 100),
  ('FC(F)(F)COc1sc2ccccc2c1-c1cccnc1', 97),
  ('COc1cccc(C(=O)c2c(-c3ccccc3[N+](=O)[O-])sc3ccccc23)c1', 96),
  ('COc1cc(Oc2c[s+]([O-])c3ccccc23)cc(OC)c1OC (stereo not drawn)', 101),
  ('COc1ccc(-c2sc3ccccc3c2C(=O)c2ccccc2)c([N+](=O)[O-])c1', 97),
  ('O=Cc1c(-c2ccccc2)sc2ccccc12', 77),
  ('c1ccc2c(N3CCOCC3)csc2c1', 99),
  ('N#Cc1ccccc1-c1c(OCC(F)(F)F)sc2ccccc12', 87),
  ('Nc1ccccc1-c1cc2ccccc2s1', 70),
  ('COc1ccc(C(=O)c2c(-c3ccccc3[N+](=O)[O-])sc3ccccc23)cc1', 101),
  ('CN1CCN(c2csc3ccccc23)CC1', 97),
  ('c1ccc(Oc2csc3ccccc23)cc1', 89),
  ('c1ccc(-c2sc3ccccc3c2N2CCCCC2)cc1', 81),
  ('COc1ccc(-c2sc3ccccc3c2C(=O)c2cc(OC)c(OC)c(OC)c2)c([N+](=O)[O-])c1', 92);

====

Biological target: Intestinal-type alkaline phosphatase (Bos taurus) (UniProt P19111)
Sequence (P19111 20-506 limits assumed): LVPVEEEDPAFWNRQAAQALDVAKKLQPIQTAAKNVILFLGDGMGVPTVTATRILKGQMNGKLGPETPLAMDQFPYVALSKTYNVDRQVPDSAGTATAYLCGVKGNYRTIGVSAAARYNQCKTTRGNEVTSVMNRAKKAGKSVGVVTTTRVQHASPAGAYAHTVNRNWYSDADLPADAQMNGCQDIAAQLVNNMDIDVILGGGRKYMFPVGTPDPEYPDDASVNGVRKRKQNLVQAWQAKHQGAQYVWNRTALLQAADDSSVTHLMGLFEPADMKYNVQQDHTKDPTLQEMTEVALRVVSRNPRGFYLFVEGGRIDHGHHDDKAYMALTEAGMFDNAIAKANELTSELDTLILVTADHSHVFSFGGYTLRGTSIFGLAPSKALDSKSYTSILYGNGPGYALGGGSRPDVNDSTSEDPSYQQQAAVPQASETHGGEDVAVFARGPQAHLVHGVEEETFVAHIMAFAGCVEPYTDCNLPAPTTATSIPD
Assay: Inhibition of bovine intestinal alkaline phosphatase assessed as residual enzyme activity at 0.1 mM in presence of 1% DMSO at pH 10.4 at 37 degC relative to untreated control
reported endpoint: Activity

INSERT INTO assay_data (compound, observed_measurement) VALUES
  ('COc1ccccc1C(=O)c1c(-c2ccccc2[N+](=O)[O-])sc2ccccc12', '92%'),
  ('COc1csc2ccccc12', '90%'),
  ('c1ccc(Oc2c(-c3ccccc3)sc3ccccc23)cc1', '104%'),
  ('N#Cc1c(-c2cnc3ccccc3c2)sc2ccccc12', '95%'),
  ('[O-][s+]1cc(Oc2ccccc2)c2ccccc21 (configuration not stated)', '102%'),
  ('COc1c(-c2cccnc2)sc2ccccc12', '112%'),
  ('COc1cc(Oc2c[s+]([O-])c3ccccc23)cc(OC)c1OC (configuration not stated)', '127%');
